Target: T1, corticotropin releasing factor 2 receptor
T1 sequence (Q13324 whole entry, species assumed, looked up): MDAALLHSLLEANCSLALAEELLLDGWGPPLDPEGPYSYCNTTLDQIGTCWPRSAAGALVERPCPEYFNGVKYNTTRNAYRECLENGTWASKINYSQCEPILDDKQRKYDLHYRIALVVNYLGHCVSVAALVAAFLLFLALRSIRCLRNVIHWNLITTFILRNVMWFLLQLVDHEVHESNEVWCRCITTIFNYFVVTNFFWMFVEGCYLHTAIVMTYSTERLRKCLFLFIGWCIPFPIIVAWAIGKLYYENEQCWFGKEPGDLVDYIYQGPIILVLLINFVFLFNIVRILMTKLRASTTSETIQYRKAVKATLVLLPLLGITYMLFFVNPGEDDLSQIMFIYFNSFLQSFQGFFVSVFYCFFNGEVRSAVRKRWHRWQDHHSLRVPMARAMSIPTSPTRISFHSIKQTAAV
Experiment: cell-based or functional assay
Ends that are not written are not given here.
measured_metric: CRF2R EC50 (nM)
# output: bare number, implied unit nM

1. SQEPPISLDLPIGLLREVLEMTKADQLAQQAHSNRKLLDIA-NH2 [SEQ ID NO 93] = 100
2. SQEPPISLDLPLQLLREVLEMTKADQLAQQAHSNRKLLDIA-NH2 [SEQ ID NO 95] = 100
3. ZGPPISIDLPFYLLRKMIEIEKQEKEKQQAANNRLLLDTI (C-terminal amide) [SEQ ID NO 85] = 2.34

stdin: Name the recorded CRF2R EC50 for IVLSLDVPIGLLQILLEQARQRAAREQATTNARILARV-NH2 [SEQ ID NO 114] .
stdout: 3.42

stdin: # get_value(readout='CRF2R EC50', item= ZGPPISIDLPWYLLRKMIEIEKQEKEKQQAANNRLLLDTI (C-terminal amide) [SEQ ID NO 55] )
stdout: 7.95
